Target: UniProt:Q13619
Sequence (Q13619 whole entry): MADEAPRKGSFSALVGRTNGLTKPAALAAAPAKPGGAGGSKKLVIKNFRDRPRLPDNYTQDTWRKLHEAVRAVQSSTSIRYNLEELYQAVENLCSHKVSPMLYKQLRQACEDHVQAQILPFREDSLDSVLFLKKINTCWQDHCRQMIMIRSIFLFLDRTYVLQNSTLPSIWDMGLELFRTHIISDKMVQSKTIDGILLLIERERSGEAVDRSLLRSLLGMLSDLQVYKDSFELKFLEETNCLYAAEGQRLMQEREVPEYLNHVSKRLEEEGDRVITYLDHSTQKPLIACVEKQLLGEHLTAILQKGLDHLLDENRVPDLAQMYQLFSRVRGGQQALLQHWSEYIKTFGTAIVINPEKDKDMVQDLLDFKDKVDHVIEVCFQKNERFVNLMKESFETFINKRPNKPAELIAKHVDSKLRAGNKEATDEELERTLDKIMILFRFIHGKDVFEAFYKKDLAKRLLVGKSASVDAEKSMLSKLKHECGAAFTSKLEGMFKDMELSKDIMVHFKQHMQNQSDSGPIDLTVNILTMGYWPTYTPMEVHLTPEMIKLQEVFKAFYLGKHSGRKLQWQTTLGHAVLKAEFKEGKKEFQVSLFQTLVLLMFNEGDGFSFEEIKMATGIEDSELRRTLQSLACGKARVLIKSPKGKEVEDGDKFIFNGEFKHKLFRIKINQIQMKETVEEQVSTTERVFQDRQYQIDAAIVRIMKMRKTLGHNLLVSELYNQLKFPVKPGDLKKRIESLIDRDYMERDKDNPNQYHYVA
Assay: Inhibition of GST-tagged CUL4A/Rbxl ubiquitin ligase activity (unknown origin) assessed as reduction in reconstituted DDB1 ubiquitination in presence of ubiquitin, El, E2 and DDB1 incubated for 1 hr by Western blotting analysis

[
  {
    "chemSmiles": "COc1ccc(-c2nnc(S)n2-c2ccc(C)cc2)cc1",
    "censoringOperator": "=",
    "IC50, nM": 2400
  },
  {
    "chemSmiles": "CC(C)c1nnc(S)n1-c1ccc(Cl)c(Cl)c1",
    "censoringOperator": "<",
    "IC50, nM": 240
  },
  {
    "chemSmiles": "N#CC1=C(N)SC(N)=C(C#N)C1c1ccc(C(F)(F)F)cc1",
    "censoringOperator": ">",
    "IC50, nM": 50000
  },
  {
    "chemSmiles": "COC(=O)Oc1c(Br)c(C)c2oc(=O)sc2c1Br",
    "censoringOperator": "<",
    "IC50, nM": 240
  },
  {
    "chemSmiles": "N#CC1=C(N)SC(N)=C(C#N)C1CCc1ccccc1",
    "censoringOperator": "=",
    "IC50, nM": 3680
  },
  {
    "chemSmiles": "CNC(=O)Oc1c(Br)cc2sc(=O)oc2c1Br",
    "censoringOperator": "<",
    "IC50, nM": 240
  },
  {
    "chemSmiles": "COc1ccc(-c2c3c([nH]c(=S)c2C#N)CCC3)cc1",
    "censoringOperator": "=",
    "IC50, nM": 997
  },
  {
    "chemSmiles": "N#CC1=C(N)SC(N)=C(C#N)C1c1cc(Br)ccc1F",
    "censoringOperator": "=",
    "IC50, nM": 690000
  },
  {
    "chemSmiles": "N#Cc1c(-c2ccco2)c2c([nH]c1=S)CCCC2",
    "censoringOperator": "=",
    "IC50, nM": 554
  },
  {
    "chemSmiles": "Sc1nnc(C2CC2)n1-c1ccc(Cl)c(Cl)c1",
    "censoringOperator": "=",
    "IC50, nM": 703000
  },
  {
    "chemSmiles": "N#Cc1c(-c2ccncc2)c2c([nH]c1=S)CCCC2",
    "censoringOperator": "=",
    "IC50, nM": 2680
  }
]
